- Species: Rattus norvegicus
- Test method notes: Open TG-GATES - Regimen: Daily Repeat
- Type: toxicity, organism-based, Sprague-Dawley
- Parameters: regimen Daily Repeat, gender Male, age 6 weeks
- Stated conditions: in vivo, po, 0 mg/kg, […], tissue Blood, route gavage, dose level Control, time 14 day
Assignment: determine reported Hb for the given molecules.
Answers are plain numbers, in g/dL.

These solved cases illustrate the format of a correct answer.
{"columns": ["Molecule", "Meas value"],
 "data": [
  ["Brc1ccccc1 [BROMOBENZENE]", 13.8],
  ["O=C(OC[C@H]1O[C@@H](OC(=O)c2cc(O)c(O)c(OC(=O)c3cc(O)c(O)c(O)c3)c2)[C@H](OC(=O)c2cc(O)c(O)c(OC(=O)c3cc(O)c(O)c(O)c3)c2)[C@@H](OC(=O)c2cc(O)c(O)c(OC(=O)c3cc(O)c(O)c(O)c3)c2)[C@@H]1OC(=O)c1cc(O)c(O)c(OC(=O)c2cc(O)c(O)c(O)c2)c1)c1cc(O)c(O)c(OC(=O)c2cc(O)c(O)c(O)c2)c1 [TANNIC ACID]", 13.9],
  ["CCCc1cc(=O)[nH]c(=S)[nH]1 [PROPYLTHIOURACIL]", 14.7],
  ["CN/C(=N/CCSCc1nc[nH]c1C)NC#N [CIMETIDINE]", 14.3],
  ["COC(=O)C1=C(C)NC(C)=C(C(=O)OC)C1c1ccccc1[N+](=O)[O-] [NIFEDIPINE]", 14.8]
]}

Identify measured Hb corresponding to CN1C(=O)CCS(=O)(=O)C1c1ccc(Cl)cc1 (stereo unspecified) [CHLORMEZANONE]
14.5

====

Give ALP for every item shown.
- Species: Rattus norvegicus
- Test method notes: Open TG-GATES - Regimen: Daily Repeat
- Assay type: toxicity, organism-based, Sprague-Dawley
- Set-up: regimen Daily Repeat, gender Male, age 6 weeks
- Stated conditions: in vivo, po, 0 mg/kg, […], tissue Plasma, route gavage, dose level Control, time 7 day
Answers are plain numbers, in IU/L.

Solved entries:
{"columns": ["Molecule", "Meas value"],
 "data": [
  ["CN/C(=N/CCSCc1nc[nH]c1C)NC#N [CIMETIDINE]", 1067.6],
  ["Nc1c2c(nc3ccccc13)CCCC2 [TACRINE]", 1508],
  ["CNC(=C[N+](=O)[O-])NCCSCc1ccc(CN(C)C)o1 [RANITIDINE]", 967.8],
  ["COC(=O)C1=C(C)NC(C)=C(C(=O)OC)C1c1ccccc1[N+](=O)[O-] [NIFEDIPINE]", 1580.4],
  ["Cc1nnc2n1-c1ccc(Cl)cc1C(c1ccccc1Cl)=NC2 [TRIAZOLAM]", 1652.6],
  ["CN(C)CCC(c1ccc(Cl)cc1)c1ccccn1 (stereo not drawn) [CHLORPHENIRAMINE]", 1518.2]
]}

State recorded ALP for all listed molecules.
1. O=C(OC[C@H]1O[C@@H](OC(=O)c2cc(O)c(O)c(OC(=O)c3cc(O)c(O)c(O)c3)c2)[C@H](OC(=O)c2cc(O)c(O)c(OC(=O)c3cc(O)c(O)c(O)c3)c2)[C@@H](OC(=O)c2cc(O)c(O)c(OC(=O)c3cc(O)c(O)c(O)c3)c2)[C@@H]1OC(=O)c1cc(O)c(O)c(OC(=O)c2cc(O)c(O)c(O)c2)c1)c1cc(O)c(O)c(OC(=O)c2cc(O)c(O)c(O)c2)c1 [TANNIC ACID]
2. NC1=NC(=O)C(c2ccccc2)O1 (stereo not drawn) [PEMOLINE]

1: 813.4; 2: 1625.6

Go through the list and state ALP for each entry.
1. Brc1ccccc1 [BROMOBENZENE]
2. CC(C)NNC(=O)c1ccncc1 [IPRONIAZID]
3. CCOc1ccc(NC(C)=O)cc1 [PHENACETIN]
4. CCCc1cc(=O)[nH]c(=S)[nH]1 [PROPYLTHIOURACIL]

[1737.2, 1693, 1453, 1082.6]

Given the molecule CN1C(=O)CCS(=O)(=O)C1c1ccc(Cl)cc1 (stereo not drawn) [CHLORMEZANONE] , write its reported ALP.
1745
